Assay: NCI Yeast Anticancer Drug Screen. Data for the bub3 strain (AID 167)
Conditions: S. cerevisiae bub3 mutant strain, at 50.0 µM (retest, dose inferred, filed as 5.0), active compounds read high
This is part of a sample that, as a whole, favours compounds with a hit. Of some 79,000 tested, about 15% had one in any assay.
So basically: growth inhibition at 80% or higher? That is label 1. Lower than 80%? That is label 0.

# input Determine whether measured growth inhibition meets or exceeds 80% for Nc1c(Cl)cccc1C(=O)O
# output label 0

---

Experiment: NCI Yeast Anticancer Drug Screen. Data for the rad50 strain (AID 155);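 also: 0% = growth of vehicle-only cultures of the same strain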
Details: S. cerevisiae rad50 strain growth inhibition; at 11.0 µM
Description: Growth inhibition of yeast strains with defined genetic alterations is measured as a screen for potential anti-cancer activity. Selected strains with alterations in DNA damage repair or cell cycle control were exposed to compounds and growth inhibition was measured relative to vehicle treated controls. The strain used in this assay is rad50
This is part of a sample that, as a whole, favours compounds with a hit. Of some 79,000 tested, about 15% had one in any assay. Activity calls are given as the source filed them. Cut-off read from the data, not from the text of the source: active = growth inhibition above about 70%; inactive = the rest.
Bench note: report the call from active, inactive

Take a look at these entries with their results.
COMPOUND	LABEL
Cn1cnc(N)c1C(=N)[Se]	active
CCN(CC)CCBr	inactive
CCN(CCCl)CCCCNc1c2ccccc2nc2ccc(OC)cc12	active
C[C@]12CCC3[C@@H](CC[C@@H]4c5nonc5CC[C@]34C)C1CCC2=O (some centres not stated)	inactive
O=C1C2CC(Cl)C(SSC3CC4C(=O)N(SC(Cl)(Cl)C(Cl)Cl)C(=O)C4CC3Cl)CC2C(=O)N1SC(Cl)(Cl)C(Cl)Cl (configuration not stated)	active
CSc1ccccc1[As](C)C	active
O=C(O)C1C2CCC(C2)C1c1ccccc1 (configuration not stated)	inactive
CCS(=O)(=O)[O][Sn]([CH2]C)([CH2]C)[O]S(=O)(=O)CC	inactive
CCC1(O)C(=O)OCc2c1cc1n(c2=O)Cc2cc3cc(Cl)ccc3nc2-1 (configuration not stated)	active
C[CH2][Sn]([CH2]C)([O]S(C)(=O)=O)[O]S(C)(=O)=O	inactive

# input How did this test come out for CC1=C2C(=C[C@@](C)(CO)[C@@H]2O)C(=O)[C@](C)(O)C12CC2 ?
# output inactive

# input Again, but for C/C(=N\N=C(N)N)C(CN1CCOCC1)C(c1ccccc1)c1c(O)c2ccccc2oc1=O (configuration not stated)
# output inactive

# input Again, but for c1ccc2cc3n[se]nc3cc2c1
# output inactive

---

Assay: NCI Yeast Anticancer Drug Screen. Data for the mec2-1 strain (AID 157)
Settings: S. cerevisiae mec2-1 strain, at 50.0 µM (retest, dose inferred, filed as 5.0), active compounds read high
The panel holds about 79,000 compounds, 15% with a hit somewhere; the sample as a whole holds those more often.
So basically: growth inhibition at 50% or higher? That is rule met. Lower than 50%? That is rule not met.

Take a look at these entries with their results.
COMPOUND	LABEL
O=C(NNC(=O)OCC(Cl)(Cl)Cl)OCC(Cl)(Cl)Cl	rule not met
Cc1nc(Cl)c(CBr)c(Cl)n1	rule met
CN1C(=O)CC[C@@]2(C)C1=CC[C@H]1[C@@H]3CC[C@H](O)[C@@]3(C)CC[C@@H]12	rule not met
CCC(C)(C)c1ccc(OP(=S)(S)Oc2ccc(C(C)(C)CC)cc2)cc1	rule met
COC(=O)C(CCCN=C(N)N[N+](=O)[O-])NC(=O)c1ccc2c(c1O)C(=O)c1ccccc1C2=O (configuration not stated)	rule not met

# input Determine whether measured growth inhibition meets or exceeds 50% for O=C(O)C1C2CCC(C2)C1c1ccccc1 (configuration not stated)
# output rule not met

# input Again, but for CC[CH2][Sn]([CH2]CC)([CH2]CC)[CH2]CCBr
# output rule met

# input Again, but for CCCCCCCCCCCCN=C(N)N
# output rule met

# input Again, but for COC(=O)C1=C(C(=O)OC)[C]([Hg][CH3])(C(C)=O)N=N1 (configuration not stated)
# output rule met

---

Assay: NCI Yeast Anticancer Drug Screen. Data for the rad50 strain (AID 155);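 also: 0% = growth of vehicle-only cultures of the same strain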
Conditions: S. cerevisiae rad50 strain growth inhibition; at 5.0 µM (retest, dose inferred, filed as 0.5); active compounds read high
Experimental: Growth inhibition of yeast strains with defined genetic alterations is measured as a screen for potential anti-cancer activity. Selected strains with alterations in DNA damage repair or cell cycle control were exposed to compounds and growth inhibition was measured relative to vehicle treated controls. The strain used in this assay is rad50
Compounds without any hit were thinned out: in the full panel of roughly 79,000, 15% have a hit.
This listing pairs molecules with measured growth inhibition.
The figure you give is taken to be in %; do not add the unit.

Some solved cases for reference:
MOLECULE	MEASUREMENT_UNITS	growth inhibition
[Ni+2].[SH2+]C([SH2+])=Nc1ccccc1.[SH2+]C([SH2+])=Nc1ccccc1.c1ccc(C[P+](c2ccccc2)(c2ccccc2)c2ccccc2)cc1	%	14
O=C1c2ccccc2-c2cccc3cccc1c23	%	3
Nc1ccccc1C(=O)OCCc1ccccc1	%	36
CN(C)CCN(C)P12(Oc3ccccc3O1)Oc1c(Cl)c(Cl)c(Cl)c(Cl)c1O2	%	-8

Then this molecule:
# input So what does the record say about growth inhibition for CNCC(O)c1cn(C)c2ccccc12 (stereo not given) ?
# output 4

---

Assay: NCI Yeast Anticancer Drug Screen. Data for the rad50 strain (AID 155);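 also: 0% = growth of vehicle-only cultures of the same strain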
Conditions: S. cerevisiae rad50 strain growth inhibition; at 5.0 µM (retest, dose inferred, filed as 0.5); active compounds read high
About 79,000 compounds went through this panel and 15% of them were active in at least one assay; those are over-represented in the sample as a whole.
READOUT_KIND: growth inhibition (%)
The figure you give is taken to be in %; do not add the unit.

Some solved cases for reference:
COMPOUND	MEASUREMENT_UNITS	growth inhibition
Cc1cc(C)c(O)c(C)c1.[Hg]	%	99
CCCCCCCCCCCCCCCCP(=O)(O)OP(=O)(O)OCC1OC(n2ccc(N)nc2=O)C(O)C1O (stereo not drawn)	%	-13
ClC1=C(Cl)C(Cl)(Cl)SS1	%	100

# input So what does the record say about growth inhibition for C[C@@H]1CCC2[C@@H](C)[C@H](O[C@H]3O[C@@H]4O[C@@]5(C)CCC6[C@H](C)CCC([C@H]3C)[C@]64OO5)O[C@@H]3O[C@@]4(C)CCC1[C@@]23OO4 (stereo partly drawn) ?
# output 92

# input Again, but for O=C1[O][Hg][c]2cccc3cccc1c23
# output 99

# input Again, but for [Ni+2].[O-][Cl+3]([O-])([O-])O.c1ccc([PH+](CC[PH+](c2ccccc2)c2ccccc2)c2ccccc2)cc1.c1ccc([PH+](CC[PH+](c2ccccc2)c2ccccc2)c2ccccc2)cc1
# output 4

# input Again, but for CC(=O)OC(C)(C)/C=C/C(=O)[C@](C)(O)[C@H]1[C@H](O)C[C@@]2(C)[C@@H]3CC=C4[C@@H](C[C@H](O)[C@H](O)C4(C)C)[C@]3(C)C(=O)C[C@]12C
# output 15

# input Again, but for Cn1cnc(C(=N)[Se])c1N
# output 63

# input Again, but for NNc1ccccc1Cl
# output 21

# input Again, but for Cc1cccc2cc3ccccc3c[n+]12
# output 5

# input Again, but for Cn1cc(NC(=O)c2cc(NC(=O)CN=C(N)N)cn2C)cc1C(=O)NCCC(=N)N
# output -30

# input Again, but for O=C(CCl)OCC(Cl)Cl
# output 3

# input Again, but for CC[N+](C)(CC)CCNC(=O)C(O)(c1ccccc1)c1ccccc1
# output -8

---

This listing pairs molecules with measured growth inhibition.
Experiment: NCI Yeast Anticancer Drug Screen. Data for the mgt1 strain (AID 153)
Conditions: S. cerevisiae mgt1 mutant growth inhibition; at 33.0 µM; active compounds read high
Compounds without any hit were thinned out: in the full panel of roughly 79,000, 15% have a hit. Activity calls are given as the source filed them. No stated cut-off is given here; in the data, active means growth inhibition above about 70%; inactive means the rest.

MOLECULE	READOUT_KIND	RESULT
NCCc1ccc(OCc2ccccc2)c(OCc2ccccc2)c1	growth inhibition	97% (active)

# input So what does the record say about growth inhibition for COC(=O)C(F)C(Br)C(=O)OC (stereo unspecified) ?
# output 99% (active)

# input Again, but for CN(N=O)C(=O)NNC(=O)N(C)N=O
# output 88% (active)

# input Again, but for C/C(=N\N=C(N)N)C(CN1CCOCC1)C(c1ccccc1)c1c(O)c2ccccc2oc1=O (stereo unspecified)
# output 37% (inactive)

---

Assay: NCI Yeast Anticancer Drug Screen. Data for the mec2-1 strain (AID 157)
Details: S. cerevisiae mec2-1 strain, at 50.0 µM
The panel holds about 79,000 compounds, 15% with a hit somewhere; the sample as a whole holds those more often. The source made the active and inactive calls. Rule as the data show it: active = growth inhibition above about 70%; inactive = the rest.
Bench note: report the call from active, inactive

Take a look at these entries with their results.
MOLECULE	LABEL
ClCCN(CCCl)c1ccc(CNCCCNCc2ccc(N(CCCl)CCCl)cc2)cc1	inactive
CN(N=O)C(=O)NNC(=O)N(C)N=O	inactive
CCc1cccc(C(C)C)c1NC1=C([n+]2ccc(C)cc2)C(=O)c2ccccc2C1=O	inactive
CC(=O)OC1C2(CC3N4C(=O)C5(CO)SSC4(CC31O)C(=O)N5C)OC(C)C(C)(C)C2=O (centres undefined)	active
N#Cc1ccccc1C(Cl)(Cl)Cl	inactive
C=CCN1C(=O)NC(=O)/C(=C/c2c3ccccc3cc3ccccc23)C1=O	inactive
c1ccc(NC2=NCCN2)nc1	inactive
CCC[CH2][Sn]1([CH2]CCC)[O]CC[S]1	active

# input How did this test come out for C/C(=N\N=C(\[Se])N1CCN(c2ccccn2)CC1)c1ccccn1 ?
# output inactive

# input Again, but for C[n+]1c(/C=C/c2ccc(O)c(O)c2)[se]c2ccccc21
# output active

# input Again, but for Oc1ccc(Cl)cc1Cc1ccccc1
# output active

# input Again, but for CCCCC1C(=O)NC(=S)N(c2ccccc2)C1=O (centres undefined)
# output inactive

# input Again, but for CC/C(=C\c1ccc(Cl)cc1)[N+](=O)[O-]
# output inactive

# input Again, but for CCC1(O)C(=O)OCc2c1cc1n(c2=O)Cc2c-1nc1ccccc1c2OC (centres undefined)
# output inactive

# input Again, but for N#Cc1ccc([Se]c2ccccc2)cc1
# output inactive

# input Again, but for CC(Cc1ccccc1)N(C)Cc1nc(C2CCC([N+](=O)[O-])O2)no1 (centres undefined)
# output inactive

# input Again, but for CC(Br)CN(CC(C)Br)c1ccc2c(c1)Cc1ccccc1-2 (centres undefined)
# output active

# input Again, but for CCNC(=O)O/N=C1/C=C2CC[C@@H]3C(CC[C@@]4(C)C3CC[C@@H]4OC(=O)NCC)[C@@]2(C)CC1 (some centres undefined)
# output active

# input Again, but for CC#C[P+](c1ccccc1)(c1ccccc1)c1ccccc1
# output active

# input Again, but for CC(CCS(C)(=O)=O)([N+](=O)[O-])[N+](=O)[O-]
# output inactive
